Each recorded value in this set is attributed to the NIST ThermoML archive (doi:10.1016/j.fluid.2015.05.009).

Conditions: 338.15 K; 101.33 kPa; Liquid; Concentric cylinders viscometry
Measurement name: viscosity (mPa·s)

- CCCCCCCC[P+](CCCCCCCC)(CCCCCCCC)CCCCCCCC.[Br-] [tetraoctylphosphonium bromide]: 142.1
- CCCC[P+](CC)(CCCC)CCCC.CCOP(=O)([O-])OCC [tributylethylphosphonium diethylphosphate]: 37.5
- CC(C)C[P+](C)(CC(C)C)CC(C)C.Cc1ccc(S(=O)(=O)[O-])cc1 [triisobutylmethylphosphonium p-toluenesulfonate]: 172.7
- CCCC[P+](C)(CCCC)CCCC.COS(=O)(=O)[O-] [tributylmethylphosphonium methyl sulfate]: 136.3

----------
Conditions: 328.15 K; 101.33 kPa; Liquid; Concentric cylinders viscometry
Measurement name: viscosity (mPa·s)

* CC(C)C[P+](C)(CC(C)C)CC(C)C.Cc1ccc(S(=O)(=O)[O-])cc1 [triisobutylmethylphosphonium p-toluenesulfonate] | 313.1
* CCCC[P+](CC)(CCCC)CCCC.CCOP(=O)([O-])OCC [tributylethylphosphonium diethylphosphate] | 57.9
* CCCCCCCC[P+](CCCCCCCC)(CCCCCCCC)CCCCCCCC.[Br-] [tetraoctylphosphonium bromide] | 226.4
* CCCC[P+](C)(CCCC)CCCC.COS(=O)(=O)[O-] [tributylmethylphosphonium methyl sulfate] | 227
